Tested on: HOP-92 NSCLC
EXPERIMENT_DESCRIPTION: NCI-60 one-dose screen, 48 h (100 = growth as untreated, 0 = no growth, -100 = all killed)
CONDITION_CONTEXT: 10 µM unless noted
Description: Growth inhibition of the HOP-92 human Non-Small Cell Lung tumor cell line is measured as a screen for anti-cancer activity. Cells are grown in 96 well plates and exposed to the test compound for 48 hours. Compounds are tested at a single concentration, which is 10^-5 M for most compounds. The reported endpoint is percent growth (GI% or GIPRCNT), where numbers from 0 - 100% represent growth inhibition, and numbers from -100% - 0 represent cell death. […]
Compounds without any hit were thinned out: in the full panel of roughly 83,000, 20% have a hit.
MEASURED_PARAMETER: growth (%)
# unit: % | format: bare number

Recorded growth, per entry:
COMPOUND	growth (%)
COc1ccc(C(=O)N2NC(=O)/C(=C/c3ccc(Br)cc3)N=C2c2ccccc2)cc1	64.4
COc1cc(/C=C/C(=O)c2c(C)nc3ccccc3c2C)ccc1OCCCCOc1cc2c(cc1OC)C(=O)N1CCC[C@H]1C=N2	-49.1
Cn1c2ccc(Br)cc2c2c3c(c4c5ccccc5[nH]c4c21)C(=O)N(O)C3=O	-77.3
COC(=O)c1nc(-c2ccccc2)oc1S(=O)(=O)N1CCN(c2cccc(Cl)c2)CC1	48.2
COc1ccc(/C=C2\N=C(c3ccccc3)N(C(=O)c3ccccc3O)NC2=O)cc1	75.5
CCN(CC)CCCC(C)Nc1c2ccc(Cl)cc2nc2cc(OC)c(OC)cc12 (configuration not stated)	-9.58
O=C(c1ccccc1)c1c(/C=C/c2ccccc2)c2ccccc2[nH]c1=O	73
O=C([O][Sn]([O]C(=O)c1ccccn1)([c]1ccccc1)[c]1ccccc1)c1ccccn1	74.5
COc1ccc(Nc2nn3c(-c4ccccc4)cc(-c4ccccc4)nc3c2C(N)=O)c(OC)c1	70.9
CCCCN(CCCC)c1ccc(C(=N)c2ccc(N(CCCC)CCCC)cc2)cc1	-83

Tell me measured growth for O=C(CSC1CCc2ccccc21)N/N=C/c1ccccc1O (configuration not stated) please.
77.4

# return recorded growth for input `Cc1cccc(/C=N/Nc2cc(C)c3cccc(C)c3n2)n1`
75.5

Output growth of `Nc1nc(-c2ccccc2)c(CCCOc2ccc(NC(=O)CBr)cc2)c(=O)[nH]1`
99.6

Input `CCOC(=O)NNC(=S)Nc1ccccc1` , output reported growth.
93.5

Let me know recorded growth for `C=C[C@@H]1C[C@@H]2Cc3c(C)cc(C)cc3N1O2` , thanks.
45.6

Input CC1=C(C#N)C(=O)NC(C)C1 (configuration not stated) , output reported growth.
83.1

* * *

Tested on: HCT-15 colon
EXPERIMENT_DESCRIPTION: NCI-60 one-dose screen, 48 h (100 = growth as untreated, 0 = no growth, -100 = all killed)
CONDITION_CONTEXT: 10 µM unless noted
The panel holds about 83,000 compounds, 20% with a hit somewhere; the sample as a whole holds those more often.
Output Criterion met for growth not less than 60%; output Criterion not met otherwise.

Illustrative cases are given below, each with its answer.
COMPOUND	TARGET_OR_SYSTEM	CLASS_LABEL
C=C[C@@H]1C[C@H](O)Cc2ccccc2N1	HCT-15 colon	Criterion met
CCN1C(=O)N(CC)C2C1NN=c1s/c(=C\c3cccnc3)c(=O)n12 (stereo not given)	HCT-15 colon	Criterion not met
O=[N+]([O-])c1cc(Cl)c2[nH]c3c(Cl)cc([N+](=O)[O-])cc3c2c1	HCT-15 colon	Criterion not met

Here is another compound to look at.
Item `CN(C[C@H]1Cc2c(cccc2N2CCN(Cc3ccccn3)CC2)CN1)[C@H]1CCCc2cccnc21` with growth of 60% or above?
Criterion not met

* * *

growth for assorted molecules
System: M14 melanoma
EXPERIMENT_DESCRIPTION: NCI-60 one-dose screen, 48 h (100 = growth as untreated, 0 = no growth, -100 = all killed)
CONDITION_CONTEXT: 10 µM unless noted
Procedure: Growth inhibition of the M14 human tumor cell line is measured as a screen for anti-cancer activity. Cells are grown in 96 well plates and exposed to the test compound for 48 hours. Compounds are tested at a single concentration, which is 10^-5 M for most compounds. The reported endpoint is percent growth (GI% or GIPRCNT), where numbers from 0 - 100% represent growth inhibition, and numbers from -100% - 0 represent cell death. For example, a value of 40 represents 60% growth inhibition. […]
Compounds without any hit were thinned out: in the full panel of roughly 83,000, 20% have a hit.
Quick note: give the figure in %, leave out the unit.

A selection of reference data follows.
MOLECULE	UNIT_TAG	EXPERIMENTAL_RESULT
c1ccc(-c2nc(N3CCNCC3)c3nc(-c4ccccc4)oc3n2)cc1	%	99.7
CC(C)(C)OC(=O)NC(CSCc1ccccc1)C(=O)ON1C(=O)CCC1=O (centres undefined)	%	104
COc1cc(-c2nn(-c3cccc(NC(=O)c4ccc(Cl)c(C(F)(F)F)c4)c3)cc2-c2ccncc2)ccc1Cl	%	26.2

Could you please provide reported growth for `CCN(CC)CCOC(=O)C(c1ccccc1)(c1ccccc1)C(C)C` ? Thanks!
106

State its growth: `COC(=O)c1cc(=O)nc(N/N=C/c2ccco2)s1`
121

Write down growth measured for item `COC(OC)c1ccccc1`
101

Output measured growth for this item: `O=C(CN1CCN(c2cc3c(cc2F)c(=O)c(C(=O)N/N=C/c2ccccc2O)cn3C2CC2)CC1)N/N=C\c1ccccc1O`
-27.6

Read the entry `CCOC(=O)c1ccc2c(c1)nc(-c1ccc(OCc3ccccc3)c(OC)c1)n2-c1cc(C(C)(C)C)[nH]n1` and write its reported growth.
95.4

Specify reported growth for the molecule shown: `O=C1NN(C(=O)c2ccc(Cl)cc2)C(c2ccccc2)=N/C1=C\c1cn(-c2ccccc2)nc1-c1ccccc1`
83.4

Please list growth recorded for the molecule `Cc1ccc(-c2nc(C(Cl)Cl)n3nc(-c4ccccc4)cc3n2)cc1`
95.7

Consider the molecule `Cn1cnc2c(N3CCN(C(=O)OCc4ccc5c(Cl)cc(Cl)c(O)c5n4)CC3)nc(Cl)nc21` . State its measured growth.
66.1

In one line, give reported growth of the entry `Fc1ccccc1-c1nc(-c2nc3cc(Cl)c(Cl)cc3[nH]2)c2ccccn12` .
71

Return growth for the following molecule: `COc1ccc(/C=C2\CN(Cc3cn(CCNc4ccnc5cc(Cl)ccc45)nn3)C/C(=C\c3ccc(OC)c(OC)c3)C2=O)cc1OC`
3.7

Write down growth measured for item `Nc1nc(-c2ccccc2)c(CCCOc2ccc(NC(=O)CBr)cc2)c(=O)[nH]1`
104

Look up and state reported growth for `COc1ccc(-c2ccc(-c3ccc(C(=N)N)s3)s2)cc1Cl`
97.2

Write down growth measured for item `COc1ccc(C2=C(c3cc(OC)c(OC)c(OC)c3)C(=O)CC2)cc1`
2.99

Note down growth recorded for `CCN(CC)c1ccc(C(=N)c2ccc(N(CC)CC)cc2)cc1`
-93.1

Supply reported growth belonging to this molecule: `COc1ccc2[nH]c(=O)c(/C=N/Nc3nc(-c4ccccc4)cs3)c(O)c2c1`
75.2

Please list growth recorded for the molecule `COC(=O)[C@]12CC[C@@H](C)[C@H](C)[C@@H]1C1=CC[C@@H]3[C@@]4(C)C(C=O)=C[C@@](C)(COC(=O)c5ccco5)[C@@H]4[C@H](O)C[C@@]3(C)[C@]1(C)CC2`
-23.3

* * *

Documented growth across a set of compounds
Test system: RPMI-8226 leukemia
EXPERIMENT_DESCRIPTION: NCI-60 one-dose screen, 48 h (100 = growth as untreated, 0 = no growth, -100 = all killed)
CONDITION_CONTEXT: 10 µM unless noted
About 83,000 compounds went through this panel and 20% of them were active in at least one assay; those are over-represented in the sample as a whole.
Lab book: enter the figure in %, no units written.

COMPOUND	UNIT_TAG	growth
COc1ccc(-c2nc(SCCC(C)C)nc(Nc3ccc(F)c(Cl)c3)c2C#N)cc1	%	95.5
CN1C(=O)N(C)C2C1NN=c1s/c(=C\c3cccnc3)c(=O)n12 (stereo unspecified)	%	95.4
CCNc1nc(S(=O)(=O)CC)nc2ccccc12	%	87.5
O=C(O)/C=C/C(=O)c1ccc(Cl)cc1	%	115
Cc1ccc(S(=O)(=O)NC(=O)n2cc(-c3ccncc3)c(-c3ccc(Cl)c(O)c3)n2)cc1	%	99.9
COc1ccc2c(c1)[nH]c(=O)c1c3cc(OC)ccc3cn21	%	-63.2
COc1ccc2c(c1)OC1=C(C(=O)OC1)C2c1cc(OC)c2c(c1)OCO2 (stereo unspecified)	%	28.3
CN1CCN(CCCOc2ccc3nc(Nc4ccc(Cl)c(C(F)(F)F)c4)ccc3c2)CC1	%	18.1
CCN(CC)c1ccc2[nH]c3c(C(N)=O)cc(=O)c(=O)c=3oc2c1	%	-1.62
COc1ccc(Nc2nc(N)nc3c2CCN(Cc2ccc(OC)cc2OC)C3=O)cc1	%	41.9

Quickly give me recorded growth for `Fc1ccc(CNCCNc2ncnc3c2cnn3-c2ccccc2)cc1`
84.6
